// endpoint IC50 / system p38 MAPKα (Homo sapiens)
readout label: IC50

- molecule: "COc1c(NC(=O)c2ccc(C)c(-c3ccc4nc(Nc5cc(OS(C)(=O)=O)cc(C(=O)NCCN6CCOCC6)c5)ncc4c3)c2)cc(C(C)(C)C)cc1NS(C)(=O)=O [Example 10]"
  readout label: "IC50"
  result: "24 nM"
- molecule: "COc1cc(Nc2ncc3cc(-c4cc(C(=O)Nc5cc(C(C)(C)C)cc(C(N)=O)c5OC)ccc4C)ccc3n2)cc(C(=O)NCCN2CCOCC2)c1 [Example 3]"
  readout label: "IC50"
  result: "12 nM"
- molecule: "COCCOCCOCCOc1cc(Nc2ncc3cc(-c4cc(C(=O)Nc5cccc(C(F)(F)F)c5)ccc4C)ccc3n2)cc(OC)c1 [Example 1]"
  readout label: "IC50"
  result: "776 nM"

* * *

# study target: Lck (Homo sapiens)
# Construct: purchased DiscoveRx Corporation (LeadHunter Discover Services, KINOMEscan)
# Sequence (P06239 whole entry): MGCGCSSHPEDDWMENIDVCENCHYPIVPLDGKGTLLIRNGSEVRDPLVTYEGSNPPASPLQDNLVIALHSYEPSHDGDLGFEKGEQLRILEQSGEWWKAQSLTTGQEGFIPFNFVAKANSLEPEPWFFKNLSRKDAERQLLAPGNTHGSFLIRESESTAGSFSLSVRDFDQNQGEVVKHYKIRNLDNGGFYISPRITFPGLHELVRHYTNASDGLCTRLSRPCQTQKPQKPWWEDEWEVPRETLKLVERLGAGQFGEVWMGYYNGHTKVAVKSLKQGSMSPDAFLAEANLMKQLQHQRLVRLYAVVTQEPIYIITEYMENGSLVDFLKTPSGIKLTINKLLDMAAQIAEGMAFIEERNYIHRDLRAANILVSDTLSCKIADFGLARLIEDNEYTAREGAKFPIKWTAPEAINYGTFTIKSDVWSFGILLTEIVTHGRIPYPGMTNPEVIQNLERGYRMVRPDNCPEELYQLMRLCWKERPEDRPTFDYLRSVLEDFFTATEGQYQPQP
# experimental details: KINOMEscan dissociation constant, Lck
# Assay type: binding

- query smiles: "COc1cc(Nc2ncc3cc(-c4cc(C(=O)Nc5cc(C(C)(C)C)cc(C(N)=O)c5OC)ccc4C)ccc3n2)cc(C(=O)NCCN2CCOCC2)c1"
  study target: "Lck (Homo sapiens)"
  Kd, nM: 6.7

* * *

# study target: UniProtKB Q16539
pKd: −log10 of the molar value.

- query smiles: "COc1cc(Nc2ncc3cc(-c4cc(C(=O)Nc5cc(C(C)(C)C)cc(C(N)=O)c5OC)ccc4C)ccc3n2)cc(C(=O)NCCN2CCOCC2)c1"
  pKd: 8.41
